MEASURED TARGET: DCN1 (DCUND1) protein PONY domain (Homo sapiens (Human), UniProt Q96GG9)
Sequence (Q96GG9 60-248): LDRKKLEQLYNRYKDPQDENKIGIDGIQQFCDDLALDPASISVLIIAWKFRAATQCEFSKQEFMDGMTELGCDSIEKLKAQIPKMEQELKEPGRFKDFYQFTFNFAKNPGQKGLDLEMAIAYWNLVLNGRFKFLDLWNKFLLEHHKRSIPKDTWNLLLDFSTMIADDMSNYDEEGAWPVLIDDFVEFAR
TEST METHOD NOTES: TR-FRET assay (binding to DCN-1, displacement of FAM-labeled probe)
STUDY CONDITIONS: 24 hr after treatment with compound; read-out: TR FRET IC50 24 hr
pIC50: −log10 of the molar value.

{"MOLECULE": "C=C(CN1CC2CC1C2)C(=O)NCc1cccc([C@@H]2c3cnn(-c4ccccc4)c3N(CC)C(=O)[C@H]2NC(=O)c2cccc(C(F)(F)F)c2)c1", "pIC50": "≥ 6.70"}
{"MOLECULE": "CCN1C(=O)[C@@H](NC(=O)c2cccc(C(F)(F)F)c2)[C@H](c2cc(NC(=O)/C=C/CN(C)C)ccc2F)c2cnn(-c3ccccc3)c21 (racemic)", "pIC50": "6.00 to 6.70"}
{"MOLECULE": "CCN1C(=O)[C@H](NC(=O)c2cccc(C(F)(F)F)c2)[C@@H](c2cccc(CNC(=O)/C=C(\\C)C(=O)OC)c2)c2cnn(-c3ccccc3)c21", "pIC50": "5.52 to 6.00"}
{"MOLECULE": "CCN1C(=O)[C@@H](NC(=O)c2ccn(C(F)(F)F)n2)[C@H](c2cccc(NC(=O)C3=CCN(C)C3)c2)c2c(C)nn(-c3ccccc3)c21", "pIC50": "≥ 6.70"}
{"MOLECULE": "CCN1C(=O)[C@@H](NC(=O)c2cccc(C(F)(F)F)c2)[C@H](c2cccc(CNC(=O)C3=C(C(=O)OC)CCC3)c2)c2cnn(-c3ccccc3)c21", "pIC50": "5.52 to 6.00"}

----------
MEASURED TARGET: DCN1 protein (Homo sapiens (Human))
Sequence (Q96GG9 whole entry): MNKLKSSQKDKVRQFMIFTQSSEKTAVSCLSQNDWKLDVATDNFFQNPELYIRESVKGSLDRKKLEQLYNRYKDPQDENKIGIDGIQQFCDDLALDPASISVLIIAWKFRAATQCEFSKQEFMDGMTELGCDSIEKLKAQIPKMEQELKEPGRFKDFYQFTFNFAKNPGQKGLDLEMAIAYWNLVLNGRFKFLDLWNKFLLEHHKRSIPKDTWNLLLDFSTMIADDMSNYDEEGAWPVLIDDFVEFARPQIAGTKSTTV
TEST METHOD NOTES: Intact protein MS analysis with the RapidFire-TOF system (covalent adduct formation)
Format: binding
STUDY CONDITIONS: 400 nM DCN1, incubated at room temperature for 3 hours
Item-by-item account of Emax
MEASURED PARAMETER: Emax

{"COMPOUND": "CCN1C(=O)[C@@H](NC(=O)c2cccc(C(F)(F)F)c2)[C@@H](c2cccc(NC(=O)[C@H](C)Br)c2)c2c(C)nn(-c3ccccc3)c21 (mixture of isomers)", "MEASURED PARAMETER": "Emax", "REPORTED RESULT": "0 to 30%"}
{"COMPOUND": "CCN1C(=O)[C@H](NC(=O)c2cccc(C(F)(F)F)c2)[C@@H](c2ccccc2NC(=O)C2=CCC2)c2cnn(-c3ccccc3)c21 (racemic)", "MEASURED PARAMETER": "Emax", "REPORTED RESULT": "0 to 30%"}
{"COMPOUND": "C=C(CN1CCN(C2COC2)CC1)C(=O)NCc1cccc([C@@H]2c3cnn(-c4ccccc4)c3N(CC)C(=O)[C@H]2NC(=O)c2cccc(C(F)(F)F)c2)c1", "MEASURED PARAMETER": "Emax", "REPORTED RESULT": "80 to 100%"}
{"COMPOUND": "CCN1C(=O)[C@H](NC(=O)c2cccc(C(F)(F)F)c2)[C@@H](c2cccc(NC(=O)C3=CCC3)c2)c2c(C)nn(-c3ccccc3)c21 (racemic)", "MEASURED PARAMETER": "Emax", "REPORTED RESULT": "80 to 100%"}
{"COMPOUND": "C=C(C)C(=O)Nc1ccccc1[C@H]1c2c(C)nn(-c3ccccc3)c2N(CC)C(=O)[C@@H]1NC(=O)c1cccc(C(F)(F)F)c1 (racemic)", "MEASURED PARAMETER": "Emax", "REPORTED RESULT": "0 to 30%"}
{"COMPOUND": "C=C(CN1CCC(F)(F)C1)C(=O)Nc1cccc([C@@H]2c3c(C)nn(-c4ccccc4)c3N(CC)C(=O)[C@H]2NC(=O)c2nccc(C(F)(F)F)n2)c1", "MEASURED PARAMETER": "Emax", "REPORTED RESULT": "80 to 100%"}
{"COMPOUND": "C=C(C(=O)NCc1cccc([C@@H]2c3cnn(-c4ccccc4)c3N(CC)C(=O)[C@H]2NC(=O)c2nccc(C(F)(F)F)n2)c1)C(C)N(C)C1COC1 (some centres unmarked)", "MEASURED PARAMETER": "Emax", "REPORTED RESULT": "80 to 100%"}
{"COMPOUND": "C=CC(=O)Nc1cccc([C@H]2c3c(C)nn(-c4ccccc4)c3N(CC)C(=O)[C@H]2NC(=O)c2cccc(C(F)(F)F)c2)c1 (racemic)", "MEASURED PARAMETER": "Emax", "REPORTED RESULT": "0 to 30%"}
{"COMPOUND": "CCN1C(=O)[C@H](NC(=O)c2cccc(C(F)(F)F)c2)[C@@H](c2cccc(N3CC=CS3(=O)=O)c2)c2c(C)nn(-c3ccccc3)c21 (racemic)", "MEASURED PARAMETER": "Emax", "REPORTED RESULT": "0 to 30%"}
{"COMPOUND": "CCN1CC=C(C(=O)Nc2cccc([C@@H]3c4c(C)nn(-c5ccccc5)c4N(CC)C(=O)[C@H]3NC(=O)c3ccn(C(F)(F)F)n3)c2)C1", "MEASURED PARAMETER": "Emax", "REPORTED RESULT": "80 to 100%"}
{"COMPOUND": "CCN1C(=O)[C@H](NC(=O)c2cccc(C(F)(F)F)c2)[C@@H](c2cccc(NC(=O)/C=C/CN3CCOCC3)c2)c2c(C)nn(-c3ccccc3)c21 (racemic)", "MEASURED PARAMETER": "Emax", "REPORTED RESULT": "0 to 30%"}

----------
Overview of recorded pIC50 for various compounds
MEASURED TARGET: DCN1 (DCUND1) protein PONY domain (Homo sapiens (Human), UniProt Q96GG9)
TEST METHOD NOTES: TR-FRET assay (binding to DCN-1, displacement of FAM-labeled probe)
STUDY CONDITIONS: 24 hr after treatment with compound; read-out: TR FRET IC50 24 hr
pIC50: −log10 of the molar value.
MEASURED PARAMETER: pIC50

{"COMPOUND": "C=C(CN1CCOCC1)C(=O)Nc1cccc([C@H]2c3c(C)nn(-c4ccccc4)c3N(CC)C(=O)C2NC(=O)c2cccc(C(F)(F)F)c2)c1 (stereo in doubt)", "MEASURED PARAMETER": "pIC50", "REPORTED RESULT": "≥ 6.70"}
{"COMPOUND": "C/C=C(\\CN1CCN(C2COC2)CC1)C(=O)Nc1cccc([C@@H]2c3cnn(-c4ccccc4)c3N(CC)C(=O)[C@H]2NC(=O)c2ccn(C(F)(F)F)n2)c1", "MEASURED PARAMETER": "pIC50", "REPORTED RESULT": "≥ 6.70"}
{"COMPOUND": "C=C(C(=O)N(C)Cc1cccc([C@@H]2c3cnn(-c4ccccc4)c3N(CC)C(=O)[C@H]2NC(=O)c2ccn(C3CC3)n2)c1)C(C)N1CCC12COC2 (some centres unmarked)", "MEASURED PARAMETER": "pIC50", "REPORTED RESULT": "6.00 to 6.70"}
{"COMPOUND": "C/C=C(\\CN1CC2(COC2)C1)C(=O)NCc1cccc([C@@H]2c3cnn(-c4ccccc4)c3N(CC)C(=O)[C@H]2NC(=O)c2ccn(C(F)(F)F)n2)c1", "MEASURED PARAMETER": "pIC50", "REPORTED RESULT": "≥ 6.70"}
{"COMPOUND": "C=C(CN(C)C1COC1)C(=O)NCc1cccc([C@@H]2c3cnn(-c4ccccc4)c3N(CC)C(=O)[C@H]2NC(=O)c2cccc(C(F)(F)F)c2)c1", "MEASURED PARAMETER": "pIC50", "REPORTED RESULT": "≥ 6.70"}

----------
// pIC50 lookup, one value per entry
MEASURED TARGET: DCN1 (DCUND1) protein PONY domain (Homo sapiens (Human), UniProt Q96GG9)
TEST METHOD NOTES: TR-FRET assay (binding to DCN-1, displacement of FAM-labeled probe)
STUDY CONDITIONS: 24 hr after treatment with compound; read-out: TR FRET IC50 24 hr
pIC50: −log10 of the molar value.
MEASURED PARAMETER: pIC50

{"COMPOUND": "C=C(CN1CCN(C2COC2)CC1)C(=O)NCc1cccc([C@@H]2c3cnn(-c4ccccc4)c3N(CC)C(=O)[C@H]2NC(=O)c2cccc(C(F)(F)F)c2)c1 [Compound I-4]", "MEASURED PARAMETER": "pIC50", "REPORTED RESULT": "≥ 6.70"}
{"COMPOUND": "C=C(CN(C)C1COC1)C(=O)NCc1cccc([C@H]2c3cnn(-c4ccccc4)c3N(CC)C(=O)[C@@H]2NC(=O)c2cccc(C(F)(F)F)c2)c1 [Compound I-154]", "MEASURED PARAMETER": "pIC50", "REPORTED RESULT": "6.00 to 6.70"}
{"COMPOUND": "CCN1C(=O)[C@H](NC(=O)c2cccc(C(F)(F)F)c2)[C@@H](c2cccc(NC(=O)/C(C#N)=C/C(C)(C)C)c2)c2c(C)nn(-c3ccccc3)c21 (racemic) [Compound I-69]", "MEASURED PARAMETER": "pIC50", "REPORTED RESULT": "6.00 to 6.70"}
{"COMPOUND": "CCN1C(=O)[C@@H](NC(=O)c2cccc(C(F)(F)F)c2)[C@H](c2cccc(CNC#N)c2)c2c(C)nn(-c3ccccc3)c21 (racemic) [Compound I-138]", "MEASURED PARAMETER": "pIC50", "REPORTED RESULT": "6.00 to 6.70"}
{"COMPOUND": "C=C(CC(=O)OC)C(=O)Nc1cccc([C@@H]2c3c(C)nn(-c4ccccc4)c3N(CC)C(=O)[C@H]2NC(=O)c2cccc(C(F)(F)F)c2)c1 (racemic) [Compound I-41]", "MEASURED PARAMETER": "pIC50", "REPORTED RESULT": "5.52 to 6.00"}
{"COMPOUND": "CC#CC(=O)N(C)c1ccccc1[C@H]1c2cnn(-c3ccccc3)c2N(CC)C(=O)[C@@H]1NC(=O)c1cccc(C(F)(F)F)c1 (racemic) [Compound I-98]", "MEASURED PARAMETER": "pIC50", "REPORTED RESULT": "5.52 to 6.00"}
{"COMPOUND": "C=C(C(=O)NCc1cccc([C@@H]2c3cnn(-c4ccccc4)c3N(CC)C(=O)[C@H]2NC(=O)c2csc(C(F)(F)F)n2)c1)C(C)N(C)C1COC1 (some centres unmarked) [Compound I-305]", "MEASURED PARAMETER": "pIC50", "REPORTED RESULT": "≥ 6.70"}
{"COMPOUND": "CCN1C(=O)[C@H](NC(=O)c2cccc(C(F)(F)F)c2)[C@@H](c2ccccc2N2CC=CC2=O)c2cnn(-c3ccccc3)c21 (racemic) [Compound I-21]", "MEASURED PARAMETER": "pIC50", "REPORTED RESULT": "< 5.52"}
{"COMPOUND": "CCN1C(=O)[C@@H](NC(=O)c2cccc(C(F)(F)F)c2)[C@H](c2cccc(CNC(=O)C3=CCN(C)C3)c2)c2c(C)nn(-c3ccccc3)c21 [Compound I-244]", "MEASURED PARAMETER": "pIC50", "REPORTED RESULT": "≥ 6.70"}
{"COMPOUND": "CCN1C(=O)[C@@H](NC(=O)c2nccc(C(F)(F)F)n2)[C@H](c2cccc(NC(=O)/C=C/C(=O)N(C)C)c2)c2c(C)nn(-c3ccccc3)c21 [Compound I-245]", "MEASURED PARAMETER": "pIC50", "REPORTED RESULT": "5.52 to 6.00"}
{"COMPOUND": "C/C=C(\\CN(C)C1COC1)C(=O)NCc1cccc([C@@H]2c3cnn(-c4ccccc4)c3N(CC)C(=O)[C@H]2NC(=O)c2ccn(C(F)(F)F)n2)c1 [Compound I-248]", "MEASURED PARAMETER": "pIC50", "REPORTED RESULT": "≥ 6.70"}
